All figures here come from PubChem BioAssay AID1159580.

Recorded normalized growth for the following compounds
assay: chemical genetic growth profiling, strain panel (AID 1159580);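 also: tested at 20 µM; growth read once vehicle control cultures reached saturation at 30 °C; 1 = growth at the plate median or of vehicle wells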; settings: S. cerevisiae deletion strains, growth OD, locus YDR052C, strain DBF4, stronger effect = lower value
In all, about 5,500 compounds went through this assay and about 2,000 (36%) were called active. Not shown: some 18% with an inconclusive outcome. Some of the results follow.

compound	normalized growth
CC(C)(O)C#Cc1ccc(/C=N\Nc2c(Cl)cc(Cl)cc2Cl)cc1	0.978
O=C1/C(=C/c2c(F)cccc2Cl)Cc2ccccc21	0.977
Cc1onc(-c2ccccc2Cl)c1-c1nc2ccccc2c(=O)o1	0.969
O=C(Nc1cccc(C(F)(F)F)c1)Oc1ccc(F)cc1Cl	0.985
COc1cc(Cl)c(NS(=O)(=O)c2cc(Br)c(Br)s2)c(OC)c1	0.988
COc1ccccc1C(C[N+](=O)[O-])c1c(N)n(C)c(=O)n(C)c1=O (stereo unspecified)	0.962
CCCCCc1ccc(S(=O)(=O)Nc2ccc3c(c2)C(=O)OC3)cc1	0.998
COCCOc1ccccc1NC(=S)SCCSC(=S)Nc1ccccc1OCCOC	0.981
N#CC1=C(N)C(C#N)(C#N)C2(CCCCC2)C2CCCC=C12 (stereo unspecified)	0.977
CC12CC[C@@H](O)CC1=CC[C@@H]1C2CCC2(C)C(=O)CC[C@@H]12 (stereo partly specified)	1.01
CCCC1c2ccsc2CCN1C(=S)Nc1ccc(Cl)cc1Cl (stereo unspecified)	0.981

---

test: chemical genetic growth profiling, strain panel (AID 1159580); settings: S. cerevisiae deletion strains, growth OD, locus YJL166W, strain qcr8, stronger effect = lower value
Screen size: about 5,500 compounds; about 2,000 (36%) were called active. Not shown: some 18% with an inconclusive outcome. The list shows a part of the results.
Recorded normalized growth for the following compounds

compound	normalized growth
COP(=S)(OC)Oc1ccc(SC)c(C)c1	0.974
CCOc1ccc2c(c1)C(C)=CC(C)(C)N2	1
CC12CCCC(O)(C1)C1CC(C)(C)C1CC2 (configuration not stated)	0.945
CC(=O)O[C@H]1C[C@@H](OC(C)=O)C(C)(C)C2C[C@@H](OC(C)=O)[C@]3(C)C(CC[C@@]4(C)[C@H](c5ccoc5)C(=O)[C@H]5O[C@]543)[C@]21C (some centres not stated)	1.01
CC(=O)O[C@H]1CC[C@@]2(C)C(=CCC3C2CC[C@]2(C)C(=O)CCC32)C1 (some centres not stated)	0.903
CCCc1cc(OC)c2c(c1)OCO2	0.985
COc1ccc(-c2cc(C(F)F)nn2-c2ccc(S(N)(=O)=O)cc2)cc1F	0.984
CC1(C)CC2C1CCC1(C)OC1CCC2(C)O (configuration not stated)	1.05
S=c1[nH]c2ccccc2s1	0.962
C=CCc1cc(OC)c2c(c1OC)OCO2	0.934
CC1(C)CC2C1CCC1(C)OC2(C)CCC1O (configuration not stated)	1.03
CCOC(N)=O	0.99

---

experiment: chemical genetic growth profiling, strain panel (AID 1159580);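 also: tested at 20 µM; growth read once vehicle control cultures reached saturation at 30 °C; 1 = growth at the plate median or of vehicle wells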; conditions: S. cerevisiae deletion strains, growth OD, locus YCL011C, strain gbp2
The campaign covered roughly 5,500 compounds. About 2,000 (36%) were called active. Inconclusive results (about 18%) are left out. No stated cut-off is given here; in the data, active means normalized growth mostly below about 0.91 (no sharp cut-off); inconclusive means no clear call, values can overlap the other calls; inactive means mostly above about 0.92. The list shows a part of the results.
Outcome codes: Y for active, N for inactive

molecule	qualitative_label
CCOC(=O)C(C)(N)Cc1ccc(O)c(O)c1 (stereo unspecified)	N
O=C1OCCN1/N=C\c1ccc([N+](=O)[O-])o1	N
Cc1cccc(CN2CCN(C(c3ccccc3)c3ccc(Cl)cc3)CC2)c1 (stereo unspecified)	Y
N[C@@H](CCC(=O)N[C@@H](CCSC(CC(=O)O)C(=O)O)C(=O)NCC(=O)O)C(=O)O (stereo partly specified)	N
CCOC(=O)CCCCCCCCCCCCC1C=CCC1 (stereo unspecified)	N
O=C(O)c1cc(=O)c2c(OCC(O)COc3cccc4oc(C(=O)O)cc(=O)c34)cccc2o1	N
O=C(NC(=O)c1c(F)cccc1F)Nc1cc(Cl)c(OC(F)(F)C(F)C(F)(F)F)cc1Cl (stereo unspecified)	N
CO[C@@H]1[C@@H](O[C@@H]2O[C@H](C)[C@@H](O[C@H]3C[C@@](C)(O)[C@H](O)[C@H](C)O3)[C@H](N(C)C)[C@H]2O)[C@@H](CC=O)C[C@@H](C)[C@@H](O[C@H]2CC[C@H](N(C)C)[C@@H](C)O2)/C=C/C=C/C[C@H](C)OC(=O)C[C@H]1O	N
CC(=O)OCC(=O)[C@@]12OC(C)(C)O[C@@H]1CC1C3C[C@H](F)C4=CC(=O)C=C[C@]4(C)[C@@]3(F)[C@@H](O)C[C@@]12C (stereo partly specified)	N
CC[C@]1(O)CC2CN(CCc3c([nH]c4ccccc34)[C@@](C(=O)OC)(c3cc4c(cc3OC)N(C=O)[C@H]3[C@@](O)(C(=O)OC)[C@H](OC(C)=O)[C@]5(CC)C=CCN6CC[C@]43[C@@H]65)C2)C1 (stereo partly specified)	N
COc1ccc2c(c1O)-c1c(OC)c(OC)cc3c1[C@H](C2)N(C)CC3	N
CN1CCc2cccc3c2C1Cc1ccc(O)c(O)c1-3 (stereo unspecified)	Y
CC1=C(/C=C/C(C)=C/C=C/C(C)=C\C(=O)O)C(C)(C)CCC1	N
CC1=C(/C=C/C(C)=C/C=C/C(C)=C/C=C/C=C(C)/C=C/C=C(C)/C=C/C2=C(C)CCCC2(C)C)C(C)(C)CCC1	N
O=C1N=C(O)CN1/N=C\c1ccc(-c2ccc([N+](=O)[O-])cc2)o1	N
c1ccc2[nH]c(-c3cscn3)nc2c1	N
CC12CCC(CC1)C(C)(C)O2	N
CC1=C(/C=C/C(C)=C/C=C/C(C)=C/C(=O)O)C(C)(C)CCC1	N
C#C[C@]1(O)CCC2C3CCc4cc(O)ccc4C3CC[C@@]21C (stereo partly specified)	N
Nc1nc(N)c2nc(CNc3ccc(C(=O)NC(CCC(=O)O)C(=O)O)cc3)cnc2n1 (stereo unspecified)	N
NCCCCN=C(N)N	N
Nc1nc2c(c(=O)[nH]1)N(C=O)C(CNc1ccc(C(=O)N[C@@H](CCC(=O)O)C(=O)O)cc1)CN2 (stereo partly specified)	N
COC(=O)[C@H]1[C@H]2C[C@@H]3c4[nH]c5cc(OC)ccc5c4CCN3C[C@H]2C[C@@H](OC(=O)c2cc(OC)c(OC)c(OC)c2)[C@@H]1OC	N
C[C@](N)(Cc1ccc(O)c(O)c1)C(=O)O	N
COc1cc(C)c2c(c1C=O)Oc1c(c(C)c(O)c3c1C(O)OC3=O)OC2=O (stereo unspecified)	N
CC(=O)O[C@H]1C[C@@H](OC(C)=O)C(C)(C)C2C[C@@H](OC(C)=O)[C@]3(C)C(CC[C@@]4(C)[C@H](c5ccoc5)C(=O)[C@H]5O[C@]543)[C@]21C (stereo partly specified)	N

---

Recorded normalized growth for the following molecules
experiment: chemical genetic growth profiling, strain panel (AID 1159580);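 also: tested at 20 µM; growth read once vehicle control cultures reached saturation at 30 °C; 1 = growth at the plate median or of vehicle wells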; settings: S. cerevisiae deletion strains, growth OD, locus YLR221C, strain rsa3, stronger effect = lower value
Hit rate of the full screen: of about 5,500 compounds, about 2,000 (36%) were called active. About 18% were inconclusive and are not listed. This is one part of the list.

molecule	normalized growth
C[C@](N)(Cc1ccc(O)cc1)C(=O)O	0.997
NC(=O)N/N=C\c1ccc([N+](=O)[O-])o1	0.975
CCOC(=O)C(C)(N)Cc1ccc(O)c(O)c1 (stereo not given)	0.976
C[C@@H]1CC2C3CCC4=CC(=O)C=C[C@]4(C)[C@@]3(F)[C@@H](O)C[C@]2(C)[C@@]1(O)C(=O)COP(=O)(O)O (stereo not given in full)	1.01
CC[C@@H]1[C@@H](O)N2C3C[C@H]1C1C(O)[C@]4(C[C@@H]12)c1ccccc1N(C)[C@@H]34 (stereo not given in full)	1.01
CCCN(CCC)CCc1cccc2c1CC(=O)N2	0.975
Nc1ccc(S(=O)(=O)Nc2nccs2)cc1	1
O=C1OCCN1/N=C\c1ccc([N+](=O)[O-])o1	0.975
CC(=O)OCC(=O)[C@@]12OC(C)(C)O[C@@H]1CC1C3C[C@H](F)C4=CC(=O)C=C[C@]4(C)[C@@]3(F)[C@@H](O)C[C@@]12C (stereo not given in full)	1.03
O=C1CN(/N=C\c2ccc([N+](=O)[O-])o2)C(=O)N1	0.976

---

assay: chemical genetic growth profiling, strain panel (AID 1159580);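 also: tested at 20 µM; growth read once vehicle control cultures reached saturation at 30 °C; 1 = growth at the plate median or of vehicle wells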; details: S. cerevisiae deletion strains, growth OD, locus YKL085W, strain MDH1 (second series)
Hit rate of the full screen: of about 5,500 compounds, about 2,000 (36%) were called active. Another 18% or so got no clear call; they are omitted. No stated cut-off is given here; in the data, active means normalized growth mostly below about 0.91 (no sharp cut-off); inconclusive means no clear call, values can overlap the other calls; inactive means mostly above about 0.92. The list shows a part of the results.
Outcome codes: y for active, n for inactive

molecule	qualitative_label
C[C@](N)(Cc1ccc(O)c(O)c1)C(=O)O	n
COC(=O)[C@H]1[C@H]2C[C@@H]3c4[nH]c5cc(OC)ccc5c4CCN3C[C@H]2C[C@@H](OC(=O)c2cc(OC)c(OC)c(OC)c2)[C@@H]1OC	n
COc1ccc2c(c1O)-c1c(OC)c(OC)cc3c1[C@H](C2)N(C)CC3	n
CN1CCc2cccc3c2C1Cc1ccc(O)c(O)c1-3 (stereo not given)	n
CN=C1CN(O)C(c2ccccc2)=c2cc(Cl)ccc2=N1	n
CC12CCC(CC1)C(C)(C)O2	n
CC[C@]12CCCN3CCc4c(n(c5ccccc45)C(=O)C1)[C@@H]32	n
Oc1cc(O)cc(/C=C/c2ccccc2)c1	n
O=C1N=C(O)CN1/N=C\c1ccc(-c2ccc([N+](=O)[O-])cc2)o1	n
COc1ccccc1N1CCNCC1	n
Cc1ccc(C(C)C)cc2c(C)ccc1-2	n
Nc1ccc(S(=O)(=O)Nc2nccs2)cc1	n
O=C1O[C@@H](CO)[C@H](O)[C@@H](O)[C@@H]1O	n
C[C@@H]1CC2C3CCC4=CC(=O)C=C[C@]4(C)[C@@]3(F)[C@@H](O)C[C@]2(C)[C@@]1(O)C(=O)COP(=O)(O)O (stereo not given in full)	n
O=C(/C=C/c1ccc(O)c(O)c1)O[C@@H]1C[C@](O)(C(=O)O)C[C@@H](O)[C@H]1O	n
NCCCCN=C(N)N	n
CCOP(=S)(OCC)SCCSCC	n
OC/C=C/c1ccc(O)c(O)c1	n
CCOP(=S)(OCC)SCSCC	n
CCCNC(C)C(=O)Nc1ccccc1C (stereo not given)	n
CCCSP(=O)(OCC)SCCC	n
COc1cc2c3cc1Oc1cc(ccc1O)OC1c4c(cc(OC)c(O)c4Oc4ccc(cc4)CC3N(C)CC2)CCN1C (stereo not given)	n
CCOP(=S)(OCC)SCSP(=S)(OCC)OCC	n
CC(Cc1ccc(O)c(O)c1)(NN)C(=O)O (stereo not given)	n
Nc1nccs1	n
Oc1ccc(/C=C/c2cc(O)cc(O)c2)cc1	n
O=C(O)CNCP(=O)(O)O	n
OCC(S)CS (stereo not given)	n
CC[C@@]1(C2O[C@@H](C3O[C@@](O)(CC)[C@H](C)C[C@@H]3C)C[C@@H]2C)CC[C@H]([C@]2(C)CCC3(C[C@H](O)[C@@H](C)[C@@H]([C@H](C)[C@@H](OC)[C@H](C)C(=O)O)O3)O2)O1 (stereo not given in full)	n
CN(C)CCCO[C@H]1[C@@H](C(O)CO)OC2OC(C)(C)O[C@@H]21 (stereo not given in full)	n
CC12CCCC(O)(C1)C1CC(C)(C)C1CC2 (stereo not given)	n
CC1(C)CC2C1CCC1(C)OC2(C)CCC1O (stereo not given)	n
O=C1CN(/N=C\c2ccc([N+](=O)[O-])o2)C(=O)N1	n
CCOC(N)=O	n
CCC(CCC(C)C1CCC2C3CC=C4C[C@@H](OC(C)=O)CC[C@]4(C)C3CC[C@]12C)C(C)C (stereo not given in full)	n
CO[C@@H]1C[C@@H](C[C@H]2CC[C@H](C)[C@H]([C@@H](C)C(=O)O)O2)O[C@]2(O[C@](C)([C@H]3CC[C@@](C)(C4O[C@@H](C5O[C@@](O)(CO)[C@H](C)C[C@@H]5C)C[C@@H]4C)O3)C[C@H]2C)[C@@H]1C (stereo not given in full)	n
NC(=O)N/N=C\c1ccc([N+](=O)[O-])o1	n
COP(=S)(OC)Oc1ccc(SC)c(C)c1	n
CC[C@]12CCCN3CCc4c(n(c5ccccc45)[C@](O)(C(=O)OC)C1)[C@@H]32	n
C[C@@H]1C[C@@H]([C@H](O)CC2CC(=O)NC(=O)C2)C(=O)[C@@H](C)C1	y
CC(C)C1=CC2=CCC3[C@](C)(CCC[C@]3(C)C(=O)O)C2CC1 (stereo not given in full)	n
CC1(C)C2CC(=O)O[C@@]3(C)C4=CC(=O)O[C@@H](c5ccoc5)[C@]4(C)CCC3[C@@]2(C)C=C[C@H]1O (stereo not given in full)	n
CS(=O)(=O)OCCCCOS(C)(=O)=O	n
O=C1OCCN1/N=C\c1ccc([N+](=O)[O-])o1	n
COc1ccc(-c2cc(C(F)F)nn2-c2ccc(S(N)(=O)=O)cc2)cc1F	n
